- System: 628569-122-R-J1-PDC complex spheroid viability
- Experimental Details: Anticancer human tumor 628569-122-R-J1-PDC patient-derived head and neck squamous carcinoma cell line growth inhibition [CLK]
- Conditions Used: second compound 0.0316 µM; first compound 0.3 µM; active compounds read low
Assay Readout: viability, T/C (%)
# unit: % | format: bare number

Known viability, T/C results, listed for orientation:
[
  {
    "Molecule": "C=CC(=O)Nc1cc(Nc2nccc(-c3cn(C)c4ccccc34)n2)c(OC)cc1N(C)CCN(C)C + CN1CCN(c2cc(C(=O)Nc3cc4cc(-c5cnn(C)c5)ccc4cn3)ccn2)CC1",
    "Assay Readout": "viability, T/C",
    "Measurement Unit": "%",
    "Reported Measurement": 59.1
  },
  {
    "Molecule": "NC(=O)C(=Cn1cnc(-c2cc(C(F)(F)F)cc(C(F)(F)F)c2)n1)c1cncnc1 + CNC(=O)c1ccc(Nc2nc(OC3CCCC3)c3c(-c4ccc5nc(C)oc5c4)c[nH]c3n2)c(OC)c1",
    "Assay Readout": "viability, T/C",
    "Measurement Unit": "%",
    "Reported Measurement": 52
  }
]

The record that follows has no viability, T/C shown yet.
Supply measured viability, T/C of NC(=O)C(=Cn1cnc(-c2cc(C(F)(F)F)cc(C(F)(F)F)c2)n1)c1cncnc1 + CN1CCN(c2cc(C(=O)Nc3cc4cc(-c5cnn(C)c5)ccc4cn3)ccn2)CC1 in your reply.
76.1

---

- System: 628569-122-R-J1-PDC complex spheroid viability
- Experimental Details: Anticancer human tumor 628569-122-R-J1-PDC cell line growth inhibition [CLK];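 also: spheroids exposed to agents for seven days before readout; 100% = DMSO vehicle control viability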
- Conditions Used: second compound 10 µM; first compound 0.0316 µM; active compounds read low
Labels assigned by viability, T/C range: group A: < 3%; group B: ≥ 3% and < 40%; group C: ≥ 40%

Worked examples, 5 compounds total:
[
  {
    "Compound": "C#Cc1c(F)ccc2cc(O)cc(-c3ncc4c(N5CC6CCC(C5)N6)nc(OCC56CCCN5CC(F)C6)nc4c3F)c12 (stereo not given) + CN1CCN(c2cc(C(=O)Nc3cc4cc(-c5cnn(C)c5)ccc4cn3)ccn2)CC1",
    "Class Name": "group B"
  },
  {
    "Compound": "Nc1ccn(C2OC(CO)C(O)C2(F)F)c(=O)n1 (stereo not given) + CNC(=O)c1ccc(Nc2nc(OC3CCCC3)c3c(-c4ccc5nc(C)oc5c4)c[nH]c3n2)c(OC)c1",
    "Class Name": "group C"
  },
  {
    "Compound": "O=C(c1cc(Cc2n[nH]c(=O)c3ccccc23)ccc1F)N1CCN(C(=O)C2CC2)CC1 + CN1CCN(c2cc(C(=O)Nc3cc4cc(-c5cnn(C)c5)ccc4cn3)ccn2)CC1",
    "Class Name": "group B"
  },
  {
    "Compound": "CC(=O)O[C@H]1C(=O)[C@@]2(C)[C@H]([C@H](OC(=O)c3ccccc3)[C@]3(O)C[C@H](OC(=O)[C@H](O)[C@@H](NC(=O)c4ccccc4)c4ccccc4)C(C)=C1C3(C)C)[C@]1(OC(C)=O)CO[C@@H]1C[C@@H]2O + CN1CCN(c2cc(C(=O)Nc3cc4cc(-c5cnn(C)c5)ccc4cn3)ccn2)CC1",
    "Class Name": "group A"
  },
  {
    "Compound": "CC(CO)NC(=O)c1cc(-c2ccc(Cl)cc2)nn(-c2cnn(C)c2)c1=O (stereo not given) + CNC(=O)c1ccc(Nc2nc(OC3CCCC3)c3c(-c4ccc5nc(C)oc5c4)c[nH]c3n2)c(OC)c1",
    "Class Name": "group C"
  }
]

Any idea which band CCN1CCN(Cc2ccc(Nc3ncc(F)c(-c4cc(F)c5nc(C)n(C(C)C)c5c4)n3)nc2)CC1 + CNC(=O)c1ccc(Nc2nc(OC3CCCC3)c3c(-c4ccc5nc(C)oc5c4)c[nH]c3n2)c(OC)c1 is in?
group C

Lab note: which band did CC1COCCN1c1cc(C2(S(C)(=N)=O)CC2)nc(-c2ccnc3[nH]ccc23)n1 (stereo not given) + CNC(=O)c1ccc(Nc2nc(OC3CCCC3)c3c(-c4ccc5nc(C)oc5c4)c[nH]c3n2)c(OC)c1 land in?
group C

Which bin should I file C=CC(=O)N1CCN(c2nc(=O)n(-c3c(C)ccnc3C(C)C)c3nc(-c4c(O)cccc4F)c(F)cc23)C(C)C1 (stereo not given) + CN1CCN(c2cc(C(=O)Nc3cc4cc(-c5cnn(C)c5)ccc4cn3)ccn2)CC1 under?
group A

Categorize the following entry: C=C(F)C(=O)N1CCN(c2nc(OCC3CCCN3C)nc3c2CCN(c2cccc4cccc(Cl)c24)C3)CC1CC#N (stereo not given) + CN1CCN(c2cc(C(=O)Nc3cc4cc(-c5cnn(C)c5)ccc4cn3)ccn2)CC1
group A

Please report the category associated with CC(Nc1ccc2c(c1)OCCn1cc(N3C(=O)OCC3C(F)F)nc1-2)C(N)=O (stereo not given) + CNC(=O)c1ccc(Nc2nc(OC3CCCC3)c3c(-c4ccc5nc(C)oc5c4)c[nH]c3n2)c(OC)c1 , nothing else.
group B

Sort into band: COc1ccc([C@@H](O)c2cc(-c3ncnc4cc(N5CCOCC5)ccc34)c(F)cc2Cl)nn1 + CN1CCN(c2cc(C(=O)Nc3cc4cc(-c5cnn(C)c5)ccc4cn3)ccn2)CC1
group A

Which viability, T/C band matches O=c1[nH]cc(F)c(=O)[nH]1 + CN1CCN(c2cc(C(=O)Nc3cc4cc(-c5cnn(C)c5)ccc4cn3)ccn2)CC1 ?
group B

Please report the category associated with COc1c(OCCCN2CCOCC2)ccc2c3n(c(=NC(=O)c4cnc(N)nc4)nc12)CCN3 + CN1CCN(c2cc(C(=O)Nc3cc4cc(-c5cnn(C)c5)ccc4cn3)ccn2)CC1 , nothing else.
group B

Which class does CCCS(=O)(=O)Nc1ccc(F)c(C(=O)c2c[nH]c3ncc(-c4ccc(Cl)cc4)cc23)c1F + CN1CCN(c2cc(C(=O)Nc3cc4cc(-c5cnn(C)c5)ccc4cn3)ccn2)CC1 fall in?
group B

Assign a category based on measured viability, T/C for C=C(F)C(=O)N1CCN(c2nc(OCC3CCCN3C)nc3c2CCN(c2cccc4cccc(Cl)c24)C3)CC1CC#N (stereo not given) + CNC(=O)c1ccc(Nc2nc(OC3CCCC3)c3c(-c4ccc5nc(C)oc5c4)c[nH]c3n2)c(OC)c1 and give only the class name.
group C

Which of the defined bands does the recorded viability, T/C of Nc1ccccc1NC(=O)c1ccc(CNC(=O)OCc2cccnc2)cc1 + CN1CCN(c2cc(C(=O)Nc3cc4cc(-c5cnn(C)c5)ccc4cn3)ccn2)CC1 sit within?
group B

Quick check: band for O=C(c1cc(Cc2n[nH]c(=O)c3ccccc23)ccc1F)N1CCN(C(=O)C2CC2)CC1 + CNC(=O)c1ccc(Nc2nc(OC3CCCC3)c3c(-c4ccc5nc(C)oc5c4)c[nH]c3n2)c(OC)c1
group C

---

Below: a set of entries, each annotated with reported viability, T/C.
- Test system: 628569-122-R-J1-PDC complex spheroid viability
- Experimental Details: Anticancer human tumor 628569-122-R-J1-PDC cell line growth inhibition [CLK];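 also: spheroids exposed to agents for seven days before readout; 100% = DMSO vehicle control viability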
- Conditions Used: second compound 0.316 µM; first compound 0.316 µM; active compounds read low

Examples with answers:
[
  {
    "Compound": "COc1c(OCCCN2CCOCC2)ccc2c3n(c(=NC(=O)c4cnc(N)nc4)nc12)CCN3 + CNC(=O)c1ccc(Nc2nc(OC3CCCC3)c3c(-c4ccc5nc(C)oc5c4)c[nH]c3n2)c(OC)c1",
    "Assay Readout": "viability, T/C",
    "Reported Measurement": "16.2%"
  },
  {
    "Compound": "CC(CO)NC(=O)c1cc(-c2ccc(Cl)cc2)nn(-c2cnn(C)c2)c1=O (stereo not given) + CNC(=O)c1ccc(Nc2nc(OC3CCCC3)c3c(-c4ccc5nc(C)oc5c4)c[nH]c3n2)c(OC)c1",
    "Assay Readout": "viability, T/C",
    "Reported Measurement": "100%"
  },
  {
    "Compound": "CCCS(=O)(=O)Nc1ccc(F)c(C(=O)c2c[nH]c3ncc(-c4ccc(Cl)cc4)cc23)c1F + CN1CCN(c2cc(C(=O)Nc3cc4cc(-c5cnn(C)c5)ccc4cn3)ccn2)CC1",
    "Assay Readout": "viability, T/C",
    "Reported Measurement": "37.9%"
  }
]

Report viability, T/C for CCc1c2c(nc3ccc(O)cc13)-c1cc3c(c(=O)n1C2)COC(=O)[C@]3(O)CC + CN1CCN(c2cc(C(=O)Nc3cc4cc(-c5cnn(C)c5)ccc4cn3)ccn2)CC1
4.62%

Recall and state the measured viability, T/C for COc1cccc2c1C(=O)c1c(O)c3c(c(O)c1C2=O)CC(O)(C(=O)CO)CC3OC1CC(N)C(O)C(C)O1 (stereo not given) + CNC(=O)c1ccc(Nc2nc(OC3CCCC3)c3c(-c4ccc5nc(C)oc5c4)c[nH]c3n2)c(OC)c1 .
75.8%

Provide measured viability, T/C value, entry: Nc1ccn(C2OC(CO)C(O)C2(F)F)c(=O)n1 (stereo not given) + CN1CCN(c2cc(C(=O)Nc3cc4cc(-c5cnn(C)c5)ccc4cn3)ccn2)CC1
23.9%
